// provenance: the OPERA property sets (Mansouri et al. 2018)

Reported logP by item:

As a guide, the following entries are already answered.
# Structure, Measurement kind, Assay value
rows = [
    ("NC(=O)c1c(Cl)cccc1Br", "logP", 1),
    ("CCc1ccc(NC(C)=O)cc1", "logP", 2.2),
    ("CC(=O)Nc1cc(C)ccc1C", "logP", 1.47),
    ("CC(=O)Nc1ccccc1Oc1ccccc1", "logP", 2.37),
    ("CC(=O)Nc1cc(C(F)(F)F)c(Cl)cc1F", "logP", 3.02),
]

Record request: logP value, item CC(=O)Nc1ccc(C)c(C)c1C 1.76

Thanks! And CC(=O)Nc1cc(OC(F)(F)F)c(Cl)cc1Cl ? 3.71

Thanks! And NC(=O)c1c(Cl)cccc1Cl ? 0.77

---

Measurement kind: logP
No unit in the answer, only the number.

As a guide, the following entries are already answered.
# Structure, logP
data = [
    ("CC(=O)Nc1cc(Cl)cc(Cl)c1", 3.17),
    ("Cc1ccccc1C(N)=O", 0.76),
    ("N#Cc1ccccc1C#N", 0.99),
    ("CC(=O)Nc1ccc(C)c(Cl)c1", 2.69),
    ("COc1cc(Br)ccc1NC(C)=O", 2.02),
]

Record request: logP value, item CC(=O)Nc1ccc(OC(F)(F)F)cc1 2.62

Thanks! And NC(=O)c1c(Br)cccc1[N+](=O)[O-] ? 0.28

---

Binning scheme for logP: lowest = under 1, middle = from 1 up to 3, highest = 3 and over

Returns: class label. Input: CC(=O)Nc1ccccc1I middle

Thanks! And Cc1cccc([N+](=O)[O-])c1C(N)=O ? lowest

Thanks! And COc1ccccc1Br ? middle

Thanks! And NC(=O)c1ccccc1I ? lowest

Thanks! And COc1cccc([N+](=O)[O-])c1C(N)=O ? lowest

---

Reported logP by item:

Record request: logP value, item CC(=O)Nc1cccc(Cl)c1Cl 2.09

Thanks! And CC(=O)Nc1c([N+](=O)[O-])cccc1[N+](=O)[O-] ? 0.56

Thanks! And CCOc1ccc(C(N)=O)cc1 ? 1.3

---

Reported logP by item:
No unit in the answer, only the number.

Record request: logP value, item CC(=O)Nc1ccc(Cl)c(C(F)(F)F)c1 3.33

Thanks! And CC(=O)Nc1ccccc1C(F)(F)F ? 1.17

Thanks! And CCCCc1ccc(NC(C)=O)cc1C ? 3.64

Thanks! And CCc1cc(NC(C)=O)ccc1Br ? 3.33

Thanks! And CC(=O)Nc1c(C)cc(C)cc1[N+](=O)[O-] ? 1.18

Thanks! And CC(=O)Nc1cc(Cl)ccc1Cl ? 2.19

Thanks! And CC(C)c1ccccc1[N+](=O)[O-] ? 3.34

Thanks! And CC(=O)Nc1ccc(Cl)cc1Cl ? 2.18

Thanks! And Cc1cccc(C)c1C(N)=O ? 0.9

Thanks! And CC(=O)Nc1ccc(Br)c(C)c1 ? 2.8

Thanks! And CC(=O)Nc1cc(C)c(Br)c(C)c1 ? 3.28

Thanks! And CC(=O)Nc1c(Br)cccc1Br ? 1.53

---

Reported logP by item:
No unit in the answer, only the number.

Record request: logP value, item CC(=O)Nc1c(F)c(F)c(F)c(F)c1F 1.7

Thanks! And CC(=O)Nc1ccc(C(N)=O)cc1 ? 0.01

Thanks! And CCc1cc(Br)ccc1NC(C)=O ? 2.27
